Assay: BSK_CASM3C_SRB: Viability Assessment in the BioMAP Diversity Plus: CASM3C Assay (AID 2283050);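 further: total protein by SRB staining as cytotoxicity measure in parallel cultures; cells exposed to compound for 24 h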
Settings: primary human coronary artery smooth muscle cells
Active and inactive are the calls of the source. How the source made its calls: active means hit-call score of the fitted dose curve at least 0.9, where 1 is the maximum; inactive means score below 0.9.
Could you please pick one outcome from this set? label 1 = active, label 0 = inactive

Consider the following illustrative entries.
CCCSC(=O)N(CCC)CCC ... label 0
CCN(CC)CCO ... label 0
Cc1ccc(N)cc1 ... label 0
c1ccc(NNc2ccccc2)cc1 ... label 0
Cc1cc(N=Nc2ccccc2C)ccc1N ... label 0
CN(C)C(=O)Nc1ccc(Cl)cc1 ... label 0

What outcome does the record of this test show for [O-][Cl+]O ? label 0

What outcome does the record of this test show for c1ccc2c(c1)oc1ccccc12 ? label 0

What outcome does the record of this test show for Nc1cc(Cl)cc(C(=O)O)c1Cl ? label 0

What outcome does the record of this test show for CCCCCOC(=O)c1ccccc1C(=O)OCCCCC ? label 0

====

Read-out: Interleukin-1 alpha (IL1a), IL1A (gene 3552)
Experiment: BSK_KF3CT_IL1a: BioMAP Diversity Plus: KF3CT Assay for Interleukin-1 alpha (IL1a) Biomarker Activity (AID 2283070)
Details: primary human keratinocytes with fibroblasts; actives raise or lower the signal
The source made the active and inactive calls. The calls were made as follows: active = hit-call score of the fitted dose curve at least 0.9, where 1 is the maximum; inactive = score below 0.9.
Assay Endpoint: AC50

COC(=O)c1ccccc1N ... inactive
CC(C)N(Cc1ccccc1)C(=O)C(C)(C)C ... inactive
O=C(N[C@H](c1ccccc1)[C@@H]1CN2CCC1CC2)c1c(Cl)ccc(C(F)(F)F)c1Cl ... 47.9 µM (active)
Nc1ccc(Cl)cc1N ... inactive
Nc1ccc(N=Nc2ccccc2)cc1 ... inactive
Brc1ccc(Oc2ccccc2)cc1 ... inactive
Oc1ccc2ccc3cccc4ccc1c2c34 ... 20 µM (active)
CC(C)(O)c1cnn2c(-c3ccc(F)c(-c4c(F)cccc4C#N)c3)cnc2n1 ... inactive

# get_value(readout='AC50', item= Nc1cc(Cl)cc(C(=O)O)c1Cl ) inactive

# get_value(readout='AC50', item= CCN(CC)N=O ) inactive

# get_value(readout='AC50', item= C[N+](C)(C)CC1CO1 (stereo not drawn) ) inactive

# get_value(readout='AC50', item= COP(=S)(OC)SCN1C(=O)c2ccccc2C1=O ) inactive

# get_value(readout='AC50', item= Clc1ccc(C(c2ccc(Cl)cc2)C(Cl)Cl)cc1 ) 13.8 µM (active)

# get_value(readout='AC50', item= Cn1cc(-c2ccccc2)c(=O)c(-c2cccc(C(F)(F)F)c2)c1 ) inactive

# get_value(readout='AC50', item= [Cl-].[Cl-].[Hg+2] ) 30.4 µM (active)

====

Read-out: sulfotransferase 2A1 (SULT2A1), SULT2A1 (gene 6822)
Assay: LTEA_HepaRG_SULT2A1: Life Technologies and Expression Analysis (LTEA) Assay for sulfotransferase 2A1 (SULT2A1) using HepaRG (AID 2283531)
Conditions: mRNA level, 48 h; actives raise or lower the signal
Active and inactive are the calls of the source. The calls were made as follows: active = hit-call score of the fitted dose curve at least 0.9, where 1 is the maximum; inactive = score below 0.9.
Assay Endpoint: outcome

Sample records with outcome:
CN(C)C(=O)Nc1ccc(Cl)cc1 ... inactive
CC(C)COC(=O)c1ccccc1C(=O)OCC(C)C ... inactive
O=[N+]([O-])c1ccc(Oc2ccc(Cl)cc2Cl)cc1 ... inactive
Nc1ccc([N+](=O)[O-])cc1 ... inactive
ClCCOCCCl ... inactive

Query molecule follows.
# get_value(readout='outcome', item= Clc1ccc(C(c2ccc(Cl)cc2)C(Cl)(Cl)Cl)cc1 ) inactive
